condition-notes: human gut metagenome, 24 h, 2 µM; also: call rule not given here
measurement-type: Bacterial Biotransformation

See these solved cases before continuing.
Request: So what does the record say about Bacterial Biotransformation for CN(C)CC(c1ccc(O)cc1)C1(O)CCCCC1.O=C(O)CCC(=O)O (stereo not given) [DESVENLAFAXINE SUCCINATE] ?
Result: Compound NOT metabolized

Request: Then this compound: O=C1NCC2(CCN(CCc3ccccc3)CC2)O1 [FENSPIRIDE]
Result: Compound NOT metabolized

Request: Same lookup for CC(C)(Oc1ccc(CCNC(=O)c2ccc(Cl)cc2)cc1)C(=O)O [BEZAFIBRATE] , please.
Result: Compound metabolized

Request: Also check CS(=O)(=O)O.O.O.O.O=C1Cc2cc(CCN3CCN(c4nsc5ccccc45)CC3)c(Cl)cc2N1 [ZIPRASIDONE MESYLATE]
Result: Compound metabolized

More entries:
Request: Query: Bacterial Biotransformation; subject: Nc1ccc(/N=N/c2ccccc2)c(N)n1
Result: Compound metabolized

====

assay-name: The drug is tested on Z-018 corresponding to pig gut metagenome with ENA study accession number: PRJEB37062 and ENA sample accession number: ERS12561817 for biotransformation under anaerobic condition. The drug concentrations were measured over 9 timepoints collected between 0 and 24 hours of incubation by liquid-chromatography-coupled mass spectrometry (LC–MS)
condition-notes: 2 µM
measurement-type: Bacterial Biotransformation

Request: Any idea what its Bacterial Biotransformation is? The compound is COc1ccc2c(c1OC)C(=O)O[C@@H]2[C@H]1c2c(cc3c(c2OC)OCO3)CCN1C [NOSCAPINE]
Result: Compound metabolized

Request: And what about the compound CCOC(=O)[C@H](CCc1ccccc1)N[C@@H](C)C(=O)N1[C@H](C(=O)O)C[C@@H]2CCC[C@@H]21 ?
Result: Compound metabolized

Request: Try the compound CC(C)(Oc1ccc(CCNC(=O)c2ccc(Cl)cc2)cc1)C(=O)O [BEZAFIBRATE]
Result: Compound NOT metabolized

Request: Note, next up: CC[C@@H](CO)NC(=O)[C@@H]1C=C2c3cccc4c3c(cn4C)C[C@H]2N(C)C1.O=C(O)/C=C\C(=O)O [METHYSERGIDE MALEATE]
Result: Compound NOT metabolized

====

condition-notes: human gut metagenome, 24 h, 2 µM
measurement-type: Bacterial Biotransformation

Known results for molecules:
Request: Recorded Bacterial Biotransformation for CC(=O)OCC(=O)[C@@]12N=C(C)O[C@@H]1C[C@H]1[C@@H]3CCC4=CC(=O)C=C[C@]4(C)[C@H]3[C@@H](O)C[C@@]12C [DEFLAZACORT] , please?
Result: Compound metabolized

Request: Also check CCC1(c2ccc(N)cc2)CCC(=O)NC1=O (configuration not stated) [AMINOGLUTETHIMIDE]
Result: Compound NOT metabolized

Request: Note, next up: CC(C)N(CCC(C(N)=O)(c1ccccc1)c1ccccn1)C(C)C.O=P(O)(O)O (configuration not stated) [DISOPYRAMIDE PHOSPHATE]
Result: Compound NOT metabolized

Request: Now give it for CCCCC(=O)N(Cc1ccc(-c2ccccc2-c2nnn[nH]2)cc1)[C@H](C(=O)O)C(C)C too.
Result: Compound metabolized

Request: Entry to check: CN1CCN(C2=Nc3cc(Cl)ccc3Nc3ccccc32)CC1 [CLOZAPINE]
Result: Compound metabolized

Request: Also CCOC(=O)[C@H](CCc1ccccc1)N[C@@H](C)C(=O)N1[C@H](C(=O)O)C[C@H]2CCCC[C@@H]21 [TRANDOLAPRIL] ?
Result: Compound NOT metabolized

Next:
Request: Would you kindly share the measured Bacterial Biotransformation for OC(CCN1CCCCC1)(c1ccccc1)C1CC2C=CC1C2 (configuration not stated) [BIPERIDEN] ?
Result: Compound NOT metabolized

Request: Further, for CCN(CC)CC#CCOC(=O)C(O)(c1ccccc1)C1CCCCC1.Cl (configuration not stated) [OXYBUTYNIN CHLORIDE] ?
Result: Compound metabolized

Request: Next record, please: Cc1cn([C@H]2C[C@H](N=[N+]=[N-])[C@@H](CO)O2)c(=O)[nH]c1=O [ZIDOVUDINE]
Result: Compound NOT metabolized

Request: # repeat for CNCCC(Oc1ccc(C(F)(F)F)cc1)c1ccccc1 (configuration not stated) [FLUOXETINE]
Result: Compound NOT metabolized

Request: Moving on to the next molecule: CCN(CC)CCNC(=O)c1cc(Cl)c(N)cc1OC [METOCLOPRAMIDE]
Result: Compound NOT metabolized

// provenance: ChEMBL document CHEMBL5724914
